- Measured On: T1, human MSLN-R3 protein (human, UniProt Q13421 487-598)
- T1 construct: also called hMSLN-R3
- Protocol Summary: ELISA on coated antigen, antibody 0.0001 nM
Provide the reported OD450 of each item.
Write the figure, then the unit, nothing else.

Give the measured OD450 of F7.44.20-H9 (scFv, not shown: small tags and cut ends, also called S009-F7.44.20 humanized antibody VH2 + VL1) scFv: EVQLVQSGAEVKKPGASVKVSCKASGYTFTDYNMDWVRQAPGQGLEWMGDINPSTGGTIYNQKFNGRVTMTEDKSASTVYMELSSLRSEDTAVYYCARRRIGTGYFDVWGQGTTVTVSSGGGGSGGGGSGGGGSEIVLTQSPDFQSVTPKEKVTITCSASSSVISSYLSWYQQKPDQSPKLLIYRTSNLASGVPSRFSGSGSGTDFTLTINSLEAEDAATYYCHQWSSFPYTFGGGTKVEIK . 0.04 OD450

Give the measured OD450 of F7.44.20-H1 (scFv, not shown: small tags and cut ends, also called S009-F7.44.20 humanized antibody VH1 + VL1) scFv: EVQLVQSGAEVKKPGASVKVSCKASGYTFTDYNMDWVRQAPGQGLEWMGDINPSTGGTIYNQKFNGRVTMTEDKSTSTVYMELSSLRSEDTAVYYCARRRIGTGYFDVWGQGTTVTVSSGGGGSGGGGSGGGGSEIVLTQSPDFQSVTPKEKVTITCSASSSVISSYLSWYQQKPDQSPKLLIYRTSNLASGVPSRFSGSGSGTDFTLTINSLEAEDAATYYCHQWSSFPYTFGGGTKVEIK . 0.05 OD450

Give the measured OD450 of F7.44.20-H11 (scFv, not shown: small tags and cut ends, also called S009-F7.44.20 humanized antibody VH2 + VL3) scFv: EVQLVQSGAEVKKPGASVKVSCKASGYTFTDYNMDWVRQAPGQGLEWMGDINPSTGGTIYNQKFNGRVTMTEDKSASTVYMELSSLRSEDTAVYYCARRRIGTGYFDVWGQGTTVTVSSGGGGSGGGGSGGGGSEIVLTQSPATLSLSPGERATLSCSASSSVISSYLSWYQQKPGQSPRLLIYRTSNLASGIPARFSGSGSGTDYTLTISSLEPEDFAVYYCHQWSSFPYTFGGGTKVEIK . 0.05 OD450

Give the measured OD450 of F7.44.20-H15 (scFv, not shown: small tags and cut ends, also called S009-F7.44.20 humanized antibody VH2a + VL3) scFv: EVQLVQSGAEVKKPGASVKVSCKASGYTFTDYNMDWVRQAPGQGLEWMGDINPSTGGTIYNQKFSGRVTMTEDKSASTVYMELSSLRSEDTAVYYCARRRIGTGYFDVWGQGTTVTVSSGGGGSGGGGSGGGGSEIVLTQSPATLSLSPGERATLSCSASSSVISSYLSWYQQKPGQSPRLLIYRTSNLASGIPARFSGSGSGTDYTLTISSLEPEDFAVYYCHQWSSFPYTFGGGTKVEIK . 0.05 OD450

Give the measured OD450 of F7.44.20-H12 (scFv, not shown: small tags and cut ends, also called S009-F7.44.20 humanized antibody VH2 + VL4) scFv: EVQLVQSGAEVKKPGASVKVSCKASGYTFTDYNMDWVRQAPGQGLEWMGDINPSTGGTIYNQKFNGRVTMTEDKSASTVYMELSSLRSEDTAVYYCARRRIGTGYFDVWGQGTTVTVSSGGGGSGGGGSGGGGSEIVLTQSPATLSLSPGERATLSCSASSSVISSYLSWYQQKPGSSPRLLIYRTSNLASGIPARFSGSGSGTDYTLTISSLEPEDFAVYYCHQWSSFPYTFGGGTKVEIK . 0.05 OD450
